# System: TK-10
# METHOD_DESCRIPTION: NCI tumour cell line growth inhibition, 48 h
The source made the active and inactive calls. Rule as the data show it: active = GI50 up to about 1.1 µM and inactive = higher.
ATTRIBUTE_MEASURED: GI50

1. Oc1ccc2ccccc2c1/N=N/c1cc(Cl)ccc1Cl : 16 µM (inactive)
2. CN(C)CC1CCCC/C1=N/OC(=O)c1ccc(Cl)cc1 (stereo unspecified) : > 100 µM (inactive)
3. O=c1oc2ccc(Cl)cc2cc1-c1cn2cc(Cl)ccc2n1 : > 100 µM (inactive)
4. COc1cc(C2C3=C(COC3=O)Oc3cc4c(cc32)OCO4)ccc1O (stereo unspecified) : > 100 µM (inactive)
5. O=C1C(Cl)N(c2cccc([N+](=O)[O-])c2)C1c1c[nH]c2ccccc12 (stereo unspecified) : 20.4 µM (inactive)
6. O=C(CCc1nnc(S)[nH]1)Nc1cccc(C(F)(F)F)c1 : > 100 µM (inactive)
